Source of measurements: ChEMBL document CHEMBL1123680

test: Percent biliary excretion property by administering intravenously to rats was reported as amount of unchanged form of compound detected in bile samples collected at 0-4 hr after the treatment.; settings: rat, iv
Labelling: dose excreted reported below 20% becomes condition met; at or above becomes condition not met.

Please review the entries below; each comes with its answer.
compound="O=[N+]([O-])c1cncn1CCN1CCOCC1 [NIMORAZOLE]" assigned_label="condition met"
compound="COC(=S)NCCn1c([N+](=O)[O-])cnc1C [CARNIDAZOLE]" assigned_label="condition met"
compound=Cn1c([N+](=O)[O-])cnc1CO assigned_label="condition not met"

Input: Item Cn1c([N+](=O)[O-])cnc1COC(N)=O [RONIDAZOLE] : dose excreted beneath 20%, strictly?
Output: condition met

Input: Item CCS(=O)(=O)CCn1c([N+](=O)[O-])cnc1C [TINIDAZOLE] : dose excreted beneath 20%, strictly?
Output: condition met

Input: Item O=[N+]([O-])c1c[nH]cn1 : dose excreted beneath 20%, strictly?
Output: condition not met

Input: Item CC(C)c1ncc([N+](=O)[O-])n1C [IPRONIDAZOLE] : dose excreted beneath 20%, strictly?
Output: condition met

Input: Item Cc1ncc([N+](=O)[O-])n1CC(O)CCl (stereo unspecified) [ORNIDAZOLE] : dose excreted beneath 20%, strictly?
Output: condition met

Input: Item Cn1c([N+](=O)[O-])cnc1/C=C/c1ccnc(N)n1 [AZANIDAZOLE] : dose excreted beneath 20%, strictly?
Output: condition not met

Input: Item Cn1c([N+](=O)[O-])cnc1C=O : dose excreted beneath 20%, strictly?
Output: condition not met

* * *

Give dose excreted for every item shown.
test: Percent biliary excretion property by administering intravenously to rats was reported as amount of unchanged form of compound detected in bile samples collected at 0-5 hr after the treatment.; settings: rat, iv
Numbers only, in %.

Completed entries (count: 10):
compound="COC(=S)NCCn1c([N+](=O)[O-])cnc1C [CARNIDAZOLE]" readout_number=8.42
compound="Cc1ncc([N+](=O)[O-])n1CC(O)CCl (stereo unspecified) [ORNIDAZOLE]" readout_number=13.5
compound="Cn1c([N+](=O)[O-])cnc1COC(N)=O [RONIDAZOLE]" readout_number=16.2
compound=O=[N+]([O-])c1c[nH]cn1 readout_number=24.3
compound="O=[N+]([O-])c1cncn1CCN1CCOCC1 [NIMORAZOLE]" readout_number=10.7
compound="CC(C)c1ncc([N+](=O)[O-])n1C [IPRONIDAZOLE]" readout_number=14
compound="CCS(=O)(=O)CCn1c([N+](=O)[O-])cnc1C [TINIDAZOLE]" readout_number=8.81
compound=Cn1c([N+](=O)[O-])cnc1C=O readout_number=31.1
compound="Cc1ncc([N+](=O)[O-])n1CCO [METRONIDAZOLE]" readout_number=22.3
compound=Cn1c([N+](=O)[O-])cnc1CO readout_number=34.6

Consider the additional compound presented here.
Input: Give me measured dose excreted, please, for this compound: Cn1c([N+](=O)[O-])cnc1/C=C/c1ccnc(N)n1 [AZANIDAZOLE]
Output: 30.6

* * *

experiment: Percent biliary excretion property by administering intravenously to rats was reported as amount of unchanged form of compound detected in bile samples collected at 0-2 hr after the treatment.; settings: rat, iv
# label = rule met if dose excreted >= 5% else rule not met

Please review the entries below; each comes with its answer.
compound=Cn1c([N+](=O)[O-])cnc1CO assigned_label="rule met"
compound=Cn1c([N+](=O)[O-])cnc1COC(N)=O assigned_label="rule met"
compound=Cn1c([N+](=O)[O-])cnc1C=O assigned_label="rule met"

Input: Hi team, for Cn1c([N+](=O)[O-])cnc1/C=C/c1ccnc(N)n1 , is the recorded dose excreted at or above 5%?
Output: rule met

Input: Hi team, for CCS(=O)(=O)CCn1c([N+](=O)[O-])cnc1C , is the recorded dose excreted at or above 5%?
Output: rule not met

Input: Hi team, for Cc1ncc([N+](=O)[O-])n1CCO , is the recorded dose excreted at or above 5%?
Output: rule met

Input: Hi team, for CC(C)c1ncc([N+](=O)[O-])n1C , is the recorded dose excreted at or above 5%?
Output: rule met

Input: Hi team, for O=[N+]([O-])c1cncn1CCN1CCOCC1 , is the recorded dose excreted at or above 5%?
Output: rule met

Input: Hi team, for Cc1ncc([N+](=O)[O-])n1CC(O)CCl (stereo unspecified) , is the recorded dose excreted at or above 5%?
Output: rule met

Input: Hi team, for O=[N+]([O-])c1c[nH]cn1 , is the recorded dose excreted at or above 5%?
Output: rule met

Input: Hi team, for COC(=S)NCCn1c([N+](=O)[O-])cnc1C , is the recorded dose excreted at or above 5%?
Output: rule not met
